- assayed target: Albumin (Bos taurus)
- measurement description: bovine serum albumin binders on microarray, profiling panel, artefact control for SMM control protein annotation, biochemical, small-molecule microarray, Alexa647 label, 635/667 nm fluorescence (AID 1118);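 note: score merges 667 nm emission intensity and signal-to-noise per printed compound spot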
- study conditions: BSA-A647 binding, fluorescence 635 nm, higher = more signal
quantity: composite z-score
Give only the figure.

input: Would you kindly share the measured composite z-score for CCCCN1CC=CC23O[C@@H]4C=CCOC(=O)[C@@H]4[C@H]2C(=O)N(CCCCCO)[C@@H]3C1=O (stereo not given in full) ?
output: 0.914

input: Report composite z-score for O=C1O[C@H](c2ccccc2)[C@H](c2ccccc2)N2[C@H]1[C@@H](C(=O)Nc1nc3ccccc3s1)[C@]1(C(=O)Nc3ccc(C#CC4(O)CCCCCC4)cc31)[C@H]2c1ccc(OCCO)cc1 please.
output: 0.8

input: Look up composite z-score: O=C(NCc1ccccc1)[C@@]1(CCS(=O)(=O)c2ccccc2)N=C(c2ccc(OCCCO)cc2)O[C@H]1c1ccccc1
output: 1.01

input: Dear colleague, I am looking for the recorded composite z-score of the following compound: CCCCCN1CC=CC23O[C@@H]4/C=C\CCCOC(=O)C4[C@H]2C(=O)N(C(CO)C(C)C)[C@@H]3C1=O (stereo not given in full)
output: 1

input: Query (compound): C[N+](C)(C)CCCCNC(=O)[C@H]1C[C@H]2C(=O)N[C@@H](Cc3ccccc3)C(=O)N2[C@H]1c1ccc(O)cc1 ; field requested: composite z-score
output: -1.16

input: I am curious: what composite z-score value has been reported for NCCCCCNC(=O)[C@@H]1C[C@@H]2C(=O)N[C@@H](Cc3ccccc3)C(=O)N2[C@@H]1c1cccc(OCCO)c1 ?
output: 0.654

input: Param item = COCCOC(=O)N1C(=O)[C@@]2(c3cc(C#CC4=CCCCC4)ccc31)[C@H](C(N)=O)[C@H]1C(=O)O[C@H](c3ccccc3)[C@H](c3ccccc3)N1[C@@H]2c1ccc(OCCO)cc1 ; retrieve measured composite z-score.
output: 0.588

input: // query composite z-score value for entry CCCCC(O)C1C=CC2C(=O)N(c3ccccc3)C(=O)C2N1Nc1ccccc1F (stereo not given)
output: 0.8

input: So what does the record say about composite z-score for CCCCCCC#C[Si](O[C@H](c1ccccc1)c1cn([C@H](CO)Cc2ccccc2)nn1)(C(C)C)C(C)C ?
output: -0.188

input: Please give the measured composite z-score for this compound: C=CCC(OC(C)=O)[C@@H]1[C@@H](N(Cc2cccc3ccccc23)C(=O)c2ccc(-c3ccccc3)cc2)c2cc(OCCCO)ccc2N1C(=O)Cc1ccc(OC)cc1 (stereo not given in full)
output: 0.173

input: I'd like to know its composite z-score. The compound in question is COCCCNC(=O)C1N=C(c2ccc(OCCCO)cc2)N(c2ccccc2)O1 (stereo not given)
output: 0.107

input: Sample CC(C)C[C@@H]1NC(=O)[C@@H]2C[C@H](C(=O)NCCCCCN)[C@H](c3cccc(OCCO)c3)N2C1=O — what was its composite z-score?
output: 1.02

input: Entry O=C1OCCC/C=C\[C@H]2OC34C=CCN(Cc5ccccc5)C(=O)[C@H]3N(CCCCCCO)C(=O)[C@@H]4C12 (stereo not given in full) has what composite z-score?
output: -0.449

input: Recorded composite z-score of COC(=O)[C@@]1(Cc2ccc(F)cc2)[C@H]2c3cc(C(=O)N4CCCC4)n(Cc4cc(C)n(C)n4)c3C[C@H]2CN1C(=O)c1ccccc1 , please.
output: 1.09

input: Quick check: composite z-score of C=CCN(Cc1ccccc1)C(=O)C(c1cccs1)N(CCOCCO)C(=O)/C=C\C(=O)O (stereo not given) ?
output: -0.462
